A collection of molecules and their measured Emax
experimental.target: mouse mu opioid receptor (Mus musculus)
Construct: expressed in transfected cells; host or cells: CHO (mMOR-CHO), membrane homogenates
assay.notes: [35S]GTPγS functional assay (mMOR-CHO membranes)
Assay type: biochemical
experimental.context: read-out: GTPgS % Emax of (DAMGO)
Dear colleague, please return just the value in %, with no unit written.

Here is how some molecules turned out for Emax.
{"columns": ["smiles.string", "result.number"],
 "data": [
  ["C/C=C\\[C@@H]1[C@H]2CCC[C@]1(c1cccc(O)c1)CCN2CCc1ccccc1", 75.3],
  ["C=C[C@@H]1[C@H]2CCC[C@]1(c1cccc(O)c1)CCN2CCc1ccccc1", 10.5],
  ["C/C=C\\[C@H]1[C@H]2CCC[C@]1(c1cccc(O)c1)CCN2CCc1ccccc1", 18]
]}

# input Using the record for `C=C[C@H]1[C@H]2CCC[C@]1(c1cccc(O)c1)CCN2CCc1ccccc1` , report its Emax.
# output 20.1

----------
A collection of molecules and their measured IC50
experimental.target: human δ-opioid receptor (OPRD1) (Homo sapiens, UniProt P41143)
Sequence (P41143 whole entry): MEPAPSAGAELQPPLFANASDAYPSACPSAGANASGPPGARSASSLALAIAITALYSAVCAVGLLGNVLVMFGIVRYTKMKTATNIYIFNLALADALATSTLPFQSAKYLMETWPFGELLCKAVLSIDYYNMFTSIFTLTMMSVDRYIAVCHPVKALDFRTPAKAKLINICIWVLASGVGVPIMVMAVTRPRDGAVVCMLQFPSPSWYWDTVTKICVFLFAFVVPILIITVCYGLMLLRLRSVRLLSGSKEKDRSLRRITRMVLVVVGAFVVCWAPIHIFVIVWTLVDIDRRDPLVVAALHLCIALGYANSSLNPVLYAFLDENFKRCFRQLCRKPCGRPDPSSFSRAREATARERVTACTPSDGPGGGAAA
assay.notes: Forskolin-induced cAMP accumulation assay, DOR antagonist mode
Dear colleague, please return just the value in nM, with no unit written.

{"columns": ["molecule", "IC50 (nM)"],
 "data": [
  ["C/C=C\\[C@H]1[C@@H]2CCC[C@@]1(c1cccc(O)c1)CCN2CCc1ccccc1 [Compound 20]", 7.52],
  ["CC/C=C\\[C@@H]1[C@H]2CCC[C@]1(c1cccc(O)c1)CCN2CCc1ccccc1 [Compound 24]", 3220],
  ["CC/C=C\\[C@H]1[C@@H]2CCC[C@@]1(c1cccc(O)c1)CCN2CCc1ccccc1 [Compound 27]", 8.22],
  ["C=C[C@H]1[C@H]2CCC[C@]1(c1cccc(O)c1)CCN2CCc1ccccc1 [Compound 8]", 113],
  ["CC/C=C\\[C@@H]1[C@@H]2CCC[C@@]1(c1cccc(O)c1)CCN2CCc1ccccc1 [Compound 26]", 520]
]}

# input Using the record for CC/C=C\[C@H]1[C@H]2CCC[C@]1(c1cccc(O)c1)CCN2CCc1ccccc1 [Compound 23] , report its IC50.
# output 69

# input Item: C=C[C@H]1[C@@H]2CCC[C@@]1(c1cccc(O)c1)CCN2CCc1ccccc1 [Compound 15]
# output 144

# input Item: C/C=C\[C@H]1[C@H]2CCC[C@]1(c1cccc(O)c1)CCN2CCc1ccccc1 [Compound 17]
# output 113

----------
experimental.target: mouse mu opioid receptor (Mus musculus, UniProt P42866)
Sequence (P42866 whole entry): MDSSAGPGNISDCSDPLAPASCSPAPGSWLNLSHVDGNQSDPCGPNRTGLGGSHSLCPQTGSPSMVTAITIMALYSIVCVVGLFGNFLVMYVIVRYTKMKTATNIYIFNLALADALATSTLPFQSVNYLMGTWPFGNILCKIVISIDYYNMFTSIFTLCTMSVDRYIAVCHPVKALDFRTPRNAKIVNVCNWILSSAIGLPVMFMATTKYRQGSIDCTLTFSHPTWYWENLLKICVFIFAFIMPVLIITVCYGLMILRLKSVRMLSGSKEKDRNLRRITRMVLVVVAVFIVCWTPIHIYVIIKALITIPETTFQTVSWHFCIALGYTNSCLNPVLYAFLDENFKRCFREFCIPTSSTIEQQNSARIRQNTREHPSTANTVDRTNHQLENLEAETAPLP
observable: pKi
Friendly reminder that pKi comes from taking -log10 of the concentration in mol/L.

Here is how some compounds turned out for pKi.
{"columns": ["smiles.string", "experimental.target", "pKi"],
 "data": [
  ["C=C[C@@H]1[C@H]2CCC[C@]1(c1cccc(O)c1)CCN2CCc1ccccc1", "mouse mu opioid receptor (Mus musculus, UniProt P42866)", 8.72],
  ["C/C=C\\[C@@H]1[C@H]2CCC[C@]1(c1cccc(O)c1)CCN2CCc1ccccc1", "mouse mu opioid receptor (Mus musculus, UniProt P42866)", 9.25],
  ["C/C=C\\[C@H]1[C@H]2CCC[C@]1(c1cccc(O)c1)CCN2CCc1ccccc1", "mouse mu opioid receptor (Mus musculus, UniProt P42866)", 8.74]
]}

Okay, next one:
# input Lab request: please report pKi under test system mouse mu opioid receptor (Mus musculus, UniProt P42866) for `C=C[C@H]1[C@H]2CCC[C@]1(c1cccc(O)c1)CCN2CCc1ccccc1`
# output 9.30

Source: paper PMC9570967
